Reference for the values: patent US11643416B2

Assignment: determine reported pIC50 for the given molecules.
Field pIC50 (float): negative decimal logarithm of the concentration in molar.

Qu. Query the reported pIC50 for CDK5 (Homo sapiens (Human), UniProt Q00535); item: NS(=O)(=O)c1ccc(Nc2ncc3cc4n(c3n2)C2(C=NN4)CCCCC2)cc1 [Compound 4]
Ans. 8.22

Qu. Form: Entry = CC1C(=O)Nc2cc3cnc(Nc4ccc(S(=O)(=O)N5CCN(C)CC5)cc4)nc3n2C12CCCCC2 (centres unmarked) [Compound 59] | System = CDK5 (Homo sapiens (Human), UniProt Q00535) | pIC50 = ____
Ans. 8.22

Qu. Reported pIC50 for CDK5 (Homo sapiens (Human), UniProt Q00535), given NC(=O)c1ccc(Nc2ncc3cc4n(c3n2)C2(CCCCC2)C(=O)NN4)cc1 [Compound 63] ?
Ans. 7.11

Qu. Checklist item: pIC50 tested on CDK5 (Homo sapiens (Human), UniProt Q00535), entry CC1=NNc2cc3cnc(Nc4ccc(S(N)(=O)=O)cc4)nc3n2C12CCCCC2 [Compound 45] , value?
Ans. 7.32

Qu. Enter reported pIC50 observed with CDK5 (Homo sapiens (Human), UniProt Q00535) for CC1=NN(C)c2cc3cnc(Nc4ccc(S(N)(=O)=O)cc4)nc3n2C12CCCCC2 [Compound 46]
Sequence (Q00535 whole entry): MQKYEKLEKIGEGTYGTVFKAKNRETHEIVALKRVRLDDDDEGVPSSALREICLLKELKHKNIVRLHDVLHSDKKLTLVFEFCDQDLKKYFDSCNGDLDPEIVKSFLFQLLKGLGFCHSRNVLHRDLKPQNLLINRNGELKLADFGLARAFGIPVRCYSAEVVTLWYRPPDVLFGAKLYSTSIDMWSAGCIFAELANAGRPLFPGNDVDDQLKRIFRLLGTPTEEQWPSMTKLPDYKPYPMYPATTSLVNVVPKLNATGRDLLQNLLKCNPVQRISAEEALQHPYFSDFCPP
Sequence (Q15078 whole entry partner): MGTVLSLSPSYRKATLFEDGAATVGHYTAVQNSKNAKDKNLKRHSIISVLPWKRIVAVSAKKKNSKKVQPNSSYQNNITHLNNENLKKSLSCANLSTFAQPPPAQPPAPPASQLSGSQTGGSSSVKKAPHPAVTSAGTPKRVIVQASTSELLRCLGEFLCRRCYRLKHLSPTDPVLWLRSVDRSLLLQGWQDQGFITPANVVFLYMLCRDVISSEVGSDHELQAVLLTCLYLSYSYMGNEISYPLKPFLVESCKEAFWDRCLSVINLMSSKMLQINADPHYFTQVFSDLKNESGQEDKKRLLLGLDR
Ans. 7.96
